From: ChEMBL document CHEMBL1275449

System: Cryptococcus neoformans
ASSAY_SUMMARY: Antifungal activity against Cryptococcus neoformans ATCC 66031 after 72 hrs by CLSI method
Format: functional, organism-based
ASSAY_CONTEXT: ATCC 66031, 72 h
ASSAY_ENDPOINT: pIC50
Would you please state pIC50, meaning minus log10 of the concentration in mol/L, as a bare number?

Below are worked cases with known answers.
// returns reported pIC50 for input "CCCCCCCCCCCCC#CCCCCC(=O)O" 5.96

Can you check CC(=O)N1CCN(c2ccc(OCC3COC(Cn4ccnc4)(c4ccc(Cl)cc4Cl)O3)cc2)CC1 (stereo not given) next? 7.70

Same lookup for "CC[C@H](C)C[C@H](C)CCCCCCCCC(=O)N[C@H]1C[C@@H](O)[C@@H](NCCN)NC(=O)[C@@H]2[C@@H](O)CCN2C(=O)[C@H]([C@H](O)CCN)NC(=O)[C@H]([C@H](O)[C@@H](O)c2ccc(O)cc2)NC(=O)[C@@H]2C[C@@H](O)CN2C(=O)[C@H]([C@@H](C)O)NC1=O" , please. 7.00

Next:
Consider the compound "CCCCCCCCCC#CCCCCC(=O)O" and give its measured pIC50. 5.92

Same again, this time with "CCCCCCCCCCC#CCCCCC(=O)O" 5.92

Likewise for "C=CCCCCCCCCC(=O)O" ? 5.57

Now this one: "C[C@@H]1[C@H](O)[C@@H](C)/C=C/C=C/C=C/C=C/C=C/C=C/C=C/[C@H](O[C@@H]2O[C@H](C)[C@@H](O)[C@H](N)[C@@H]2O)C[C@@H]2O[C@](O)(C[C@@H](O)C[C@@H](O)[C@H](O)CC[C@@H](O)C[C@@H](O)CC(=O)O[C@H]1C)C[C@H](O)[C@H]2C(=O)O" 7.10

Now consider "CN(C/C=C/C#CC(C)(C)C)Cc1cccc2ccccc12" . 6.40

// next record "CCCCCCCCCCCC#CCCCCC(=O)O" 5.85
